[
  {
    "Molecule": "O=S(=O)(Nc1cc(Cl)c(Oc2nc3ccc(Cl)cc3s2)c(Cl)c1)c1ccc(C(F)(F)F)cc1Cl",
    "melting point": "82 to 84 °C"
  },
  {
    "Molecule": "COC(=O)c1ccc(NNC(=O)C(C)C)cc1S(N)(=O)=O",
    "melting point": "198 to 200 °C"
  },
  {
    "Molecule": "CC(C)(CO)OCc1nn(Cc2ccccc2)c2ccccc12",
    "melting point": "52 to 53 °C"
  },
  {
    "Molecule": "O=C(Nc1ccc2nc(CN3CCN=C3c3ccccc3)ccc2c1)c1ccc(-c2ccc(F)cc2)cc1",
    "melting point": "209 to 210 °C"
  },
  {
    "Molecule": "Cc1cc(=O)n(-c2ccc(Cl)cc2)cn1",
    "melting point": "177 to 179 °C"
  },
  {
    "Molecule": "CSc1ccc(NC(=O)N(C)O)cc1C(F)(F)F",
    "melting point": "125 °C"
  },
  {
    "Molecule": "CNC(=O)c1ccc(-c2cnc3[nH]c(=O)n(CC4CCCCC4)c3n2)cc1",
    "melting point": "273 to 275 °C"
  },
  {
    "Molecule": "CC1(C)[C@@H](CN2CCCS2(=O)=O)CC[C@@]1(C)NCC(=O)N1C[C@@H](F)C[C@H]1C#N",
    "melting point": "126 to 128 °C"
  },
  {
    "Molecule": "Cc1c(C)c(N2CCN(c3ccc(F)cc3)CC2)c(C)c2c1OC(C)C2 (centres undefined)",
    "melting point": "137 to 138 °C"
  },
  {
    "Molecule": "CC(C)c1nn(-c2ccc(C#N)nn2)cc1CCCO",
    "melting point": "140 to 141 °C"
  },
  {
    "Molecule": "CC(C)OCc1nc2nccnc2c(=O)[nH]1",
    "melting point": "198 to 199 °C"
  },
  {
    "Molecule": "CCOCc1nc2c(N)nc3ccccc3c2n1CC1(NC(C)=O)CCCCC1",
    "melting point": "178 to 180 °C"
  },
  {
    "Molecule": "CC(C)c1ccc(NC(=O)OC(C)(C)C)c(C(=O)O)c1",
    "melting point": "175 °C"
  },
  {
    "Molecule": "CCOP(=O)(OCC)c1cnn(-c2ccc(Cl)c(Cl)c2Cl)c1N",
    "melting point": "114 °C"
  },
  {
    "Molecule": "Cc1ccc(S(=O)(=O)OCCC2CCN(C(c3ccccc3)(c3ccccc3)c3ccccc3)CC2)cc1",
    "melting point": "176 °C"
  },
  {
    "Molecule": "CCN(CC)CCOC(=O)c1cc2cc(Br)ccc2nn1",
    "melting point": "90 to 93 °C"
  },
  {
    "Molecule": "CC(C)OC(=O)c1cc(-n2c(=O)[nH]c3c(c2=O)CCC3)c(F)cc1F",
    "melting point": "231 to 234 °C"
  },
  {
    "Molecule": "N#Cc1cc(F)c(NC(=O)CC(=O)C(F)(F)F)cc1F",
    "melting point": "176 to 181 °C"
  },
  {
    "Molecule": "CNc1nc(Br)cc(Sc2ccccc2)n1",
    "melting point": "122 to 124 °C"
  },
  {
    "Molecule": "CCCCOC1c2ccccc2C(=O)N(CC2CC2)C1(/C=C/C(N)=O)CNC(=O)OC(C)(C)C (centres undefined)",
    "melting point": "198 to 199 °C"
  },
  {
    "Molecule": "COCCCCCC(=NO)c1ccc(Cl)c(Cl)c1",
    "melting point": "53 to 54.5 °C"
  },
  {
    "Molecule": "CONS(=O)(=O)c1ccccc1S(=O)(=O)NC(=O)Nc1nc(C)cc(C)n1",
    "melting point": "218 to 219 °C"
  },
  {
    "Molecule": "CC12CCC3C(CC(O)C4(O)CC(O)CCC34C)C1CCC2=O (centres undefined)",
    "melting point": "304 to 306 °C"
  },
  {
    "Molecule": "COc1ccc(C=CC(O)C(O)C=Cc2ccc(OC)cc2)cc1 (centres undefined)",
    "melting point": "145 to 146 °C"
  },
  {
    "Molecule": "N#CC1(N2CCN(c3ccc(N4CC(CCC(N)=O)OC4=O)cc3F)CC2)CCOCC1 (centres undefined)",
    "melting point": "134 to 137 °C"
  },
  {
    "Molecule": "Cn1ncc2ccc(OCCCCl)cc2c1=O",
    "melting point": "252 to 253 °C"
  },
  {
    "Molecule": "COc1c(C)c2c(c(O)c1C/C=C1\\CCC(C(=O)O)C1)C(=O)OC2 (centres undefined)",
    "melting point": "128 to 130 °C"
  },
  {
    "Molecule": "O=C(O)c1cc2c(c(O)c1Br)OCO2",
    "melting point": "196 to 205 °C"
  },
  {
    "Molecule": "Oc1ccc(N2CCN(c3ccc4ccccc4n3)CC2)cc1",
    "melting point": "198 °C"
  },
  {
    "Molecule": "CN1CCN(Cc2cccc(-c3cc4c(Nc5cccc6[nH]ccc56)c(C#N)cnc4s3)c2)CC1",
    "melting point": "> 245 °C"
  },
  {
    "Molecule": "Cn1cc(C=CC(=O)NO)c([N+](=O)[O-])n1",
    "melting point": "172 to 174 °C"
  },
  {
    "Molecule": "Cc1cc(Cl)c([N+](=O)[O-])cc1NCCO",
    "melting point": "110 °C"
  },
  {
    "Molecule": "O=C(Nc1cccnc1)N1CCN(c2cncc(-c3ccc(F)cc3F)n2)CC1",
    "melting point": "155 to 156 °C"
  },
  {
    "Molecule": "CC(=O)n1cc(Cl)c(-c2cccc3c2OC(F)(F)O3)n1",
    "melting point": "131 °C"
  }
]
